# target_or_system: Cannabinoid receptor 2 (Homo sapiens, UniProt P34972)
# Sequence (P34972 whole entry): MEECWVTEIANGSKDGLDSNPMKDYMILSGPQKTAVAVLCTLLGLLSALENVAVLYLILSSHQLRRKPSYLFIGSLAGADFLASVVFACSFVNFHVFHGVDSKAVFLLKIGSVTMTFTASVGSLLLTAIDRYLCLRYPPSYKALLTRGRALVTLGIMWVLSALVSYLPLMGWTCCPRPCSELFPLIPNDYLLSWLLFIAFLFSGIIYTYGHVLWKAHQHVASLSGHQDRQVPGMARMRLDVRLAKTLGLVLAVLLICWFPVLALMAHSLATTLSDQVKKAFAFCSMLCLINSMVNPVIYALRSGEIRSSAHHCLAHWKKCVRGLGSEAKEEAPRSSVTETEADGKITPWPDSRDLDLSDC
# procedure_details: Displacement of [3H]-CP55940 from human recombinant CB2 receptor expressed in CHO cells membrane by scintillation counting
quantity_name: pKi
Scale explanation: pKi corresponds to minus log10 of a concentration expressed in moles per litre.

Input: Requested read-out: pKi. Entry: CCCCCn1cc(C(=O)NC(C)C23CC4CC(CC(C4)C2)C3)c(=O)cc1C (racemic)
Output: 8.19

Input: For CCCCCn1cc(C(=O)NC23CC4CC(CC(C4)C2)C3)c(=O)c(I)c1C , what is its reported pKi?
Output: 7.68

Input: Reported pKi, compound CCCCCn1cc(C(=O)NC23CC4CC(CC(C4)C2)C3)c(=O)c(-c2ccccc2)c1C : ____
Output: 6.72

Input: Field request: pKi | item: CCCCCn1cc(C(=O)NC2CCCCC2)c(=O)cc1C
Output: 7.61

====

# procedure_details: Stability in human liver microsomes assessed as compound remaining at 1 uM incubated for 60 mins
# Assay type: ADME, Microsome
# condition_notes: read-out: Stability
quantity_name: remaining at 1 h, 1 µM (%)
All answers are understood in %, so give the number only.

Input: Quick one: remaining at 1 h, 1 µM of CCCCCn1cc(C(=O)NC23CC4CC(CC(C4)C2)C3)c(=O)c(-c2ccncc2)c1C ?
Output: 1

Input: Which remaining at 1 h, 1 µM value is on record for CCCCCn1cc(C(=O)NC23CC4CC(CC(C4)C2)C3)c(=O)cc1C(C)(C)C ?
Output: 1

====

So I've got a bunch of compounds here, and I need their Ratio Ki values.
# Organism: Homo sapiens
# procedure_details: Selectivity index, ratio of Ki for human recombinant CB1 receptor to KI for human recombinant CB2 receptor

Input: # input compound: CCCCCn1cc(C(=O)NCC23CC4CC(CC(C4)C2)C3)c(=O)cc1C ; wanted: its Ratio Ki
Output: > 10

Input: Query (compound): Cc1cc(=O)c(C(=O)NC23CC4CC(CC(C4)C2)C3)cn1CCCC(F)(F)F ; field requested: Ratio Ki
Output: > 3570

Input: Item under review: CCCCCn1cc(C(=O)NC(C)C23CC4CC(CC(C4)C2)C3)c(=O)cc1C (racemic) . Reported Ratio Ki?
Output: > 10

Input: # input compound: CCCCCn1cc(C(=O)NCC2CC2)c(=O)cc1C(C)(C)C ; wanted: its Ratio Ki
Output: > 10

Input: Query (compound): CCCCCn1cc(C(=O)NC2CCCCC2)c(=O)cc1C ; field requested: Ratio Ki
Output: > 10

Input: So what does the record say about Ratio Ki for CCCCCn1cc(C(=O)NC23CC4CC(CC(C4)C2)C3)c(=O)c(-c2ccncc2)c1C ?
Output: > 10

Input: Can you share its Ratio Ki? I mean this compound: CCCCCn1cc(C(=O)NC2C3CC4CC(C3)CC2C4)c(=O)cc1C (stereo not drawn)
Output: > 3850

Input: Ratio Ki lookup needed for Cc1cc(=O)c(C(=O)NC23CC4CC(CC(C4)C2)C3)cn1CC1CCOCC1 , thanks.
Output: > 10

====

# procedure_details: Intrinsic clearance in mouse liver microsomes at 1 uM
# Format: ADME, Microsome
# condition_notes: read-out: CLH
quantity_name: microsomal CLint at 1 µM

Input: # microsomal CLint at 1 µM lookup, item CCCCCn1cc(C(=O)NC23CC4CC(CC(C4)C2)C3)c(=O)cc1C(C)(C)C
Output: > 200 µL/min/mg

Input: Given the entry CCCCCn1cc(C(=O)NC23CC4CC(CC(C4)C2)C3)c(=O)c(-c2ccncc2)c1C , report its measured microsomal CLint at 1 µM.
Output: > 200 µL/min/mg
